# Test system: Bacillus subtilis
# protocol.summary: cleaved RNA product abundance (RNA/gDNA barcode ratio) relative to median wild-type variant (ratio to wild type); higher = more accumulation of the downstream cleavage product
# run.conditions: experiment (reporter, strain, medium): exp 4a: truncated aprE reporter, strain BJT201 with 2% xylose (RNase J1 expressed); cleavage site: cggR-gapA (positions -7 to +36 mutated)
metric: cleaved RNA product abundance
Give the figure by itself; no unit, no explanation.

// query cleaved RNA product abundance value for entry ACAGACGAAGGAGCCGCAAAGAAATTATTAAGGGATGAATAACCCCTCAATATAAATATCTCTCACTTATTTAAA 0.671

New cases:
Which measured cleaved RNA product abundance value corresponds to ACAGACGAAGGAGCCGCAAAGAAGTTATTAAGGGATGCATAATCTCTCAATATAAATATCTCTCACTTATTTAAA ? 0.725

One more sequence: ACAGACGAAGGAGCCGCAAAGAAGTTATTAAGCGATGAATAATCCCTCAAAATAAATATCTCTCACTTATTTAAA 0.108

Repeat with ACAGACGAAGGAGCCGCAAAGAAATTATTAAGGGAAGAATAATCCCTCAATATAAATATCTCTCACTTATTTAAA 0.599

Then what about the sequence ACAGACGAAGGAGCCGCTAAGAAGTTATTAAGGGATGAATAAACCCTCAATATAAATATCTCTCACTTATTTAAA ? 0.689

What do we get for ACAGACGAAGGAGCCGCAAAGAAGTTATTAAGGGATGAATAATCCATCAATACAAATATCTCTCACTTATTTAAA ? 0.0901

How about this sequence: ACAGACGAAGGAGCCGCAAAGAAGTTATTAAGGGATGAATAAACCCGCAATATAAATATCTCTCACTTATTTAAA 0.103

Next sequence up: ACAGACGAAGGAGCCGCACAGAAGTTCTTAAGGGATGAATAATCCCTCAATATAAATATCTCTCACTTATTTAAA 0.275

// repeat for ACAGACGAAGGAGCCGCAAAGAAGTTATTAAGGCATGAATAATCCCTCAATATATATATCTCTCACTTATTTAAA and report 0.11

Another sequence to check: ACAGACGAAGGAGCCGCAAAGAACTTATTAAGGGATGAATCATCCCTCAATATAAATATCTCTCACTTATTTAAA 0.36

Now consider ACAGACGAAGGAGCCGCAAAGAAGTTATTAAAGGATGAATAATCCCTCTATATAAATATCTCTCACTTATTTAAA . 0.18

Another sequence to look at: ACAGACGAAGGAGCCGCAAAAAAGTTATTAATGGCTGAATAATCCCTCAATATAAATATCTCTCACTTATTTAAA 0.0935

Now consider ACAGACGAAGGAGCCGCAAAGAAGTAATTAAGGGATGAATAAGCCCTCAATATAAATATCTCTCACTTATTTAAA and answer again. 0.149

Try ACAGACGAAGGAGCCGCAAAGAAGTTATTAAGGGATGAATAATCCCTCAATATAAATTATCTCTCACTTATTTAA next. 0.975

Same for ACAGACGAAGGAGCCGCACAGAAGTTATTTAGGGATGAATAATCCCTCAATATAAATATCTCTCACTTATTTAAA 0.843
